system: RARg homodimer (NR concentration 270 nM); assay: PBM binding z-score (relative to random genomic background probes); higher = stronger binding; sequences stand for … in GC…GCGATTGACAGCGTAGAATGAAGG
Entries and their measured PBM binding z-score follow.
Parameter measured: PBM binding z-score

{"Polymer sequence": "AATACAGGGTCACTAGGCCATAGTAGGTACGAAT", "Target desc": "RARg homodimer (NR concentration 270 nM)", "Value measured": 4.61}
{"Polymer sequence": "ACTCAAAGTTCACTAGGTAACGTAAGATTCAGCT", "Target desc": "RARg homodimer (NR concentration 270 nM)", "Value measured": 5.79}
{"Polymer sequence": "CCGACTGGGGCAGAAAGGTTACCATGCCATCCGG", "Target desc": "RARg homodimer (NR concentration 270 nM)", "Value measured": 1.08}
{"Polymer sequence": "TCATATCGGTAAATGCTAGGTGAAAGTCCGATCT", "Target desc": "RARg homodimer (NR concentration 270 nM)", "Value measured": 0.173}
{"Polymer sequence": "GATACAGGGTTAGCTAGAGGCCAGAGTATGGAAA", "Target desc": "RARg homodimer (NR concentration 270 nM)", "Value measured": 0.756}
{"Polymer sequence": "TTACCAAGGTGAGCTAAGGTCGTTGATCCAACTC", "Target desc": "RARg homodimer (NR concentration 270 nM)", "Value measured": 1.15}
{"Polymer sequence": "CGAACTAGGTCAAGGACAGTGAGTCTCCGCACGC", "Target desc": "RARg homodimer (NR concentration 270 nM)", "Value measured": 4.13}
{"Polymer sequence": "TTACCAAGGTGAAGGACGTTGATCCCTCTGTAGA", "Target desc": "RARg homodimer (NR concentration 270 nM)", "Value measured": 0.524}
{"Polymer sequence": "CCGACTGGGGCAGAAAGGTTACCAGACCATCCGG", "Target desc": "RARg homodimer (NR concentration 270 nM)", "Value measured": 1.28}
{"Polymer sequence": "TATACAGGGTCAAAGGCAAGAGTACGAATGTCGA", "Target desc": "RARg homodimer (NR concentration 270 nM)", "Value measured": 5.01}
{"Polymer sequence": "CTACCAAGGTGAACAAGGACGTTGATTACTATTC", "Target desc": "RARg homodimer (NR concentration 270 nM)", "Value measured": 1.13}
{"Polymer sequence": "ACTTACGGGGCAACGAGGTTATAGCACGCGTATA", "Target desc": "RARg homodimer (NR concentration 270 nM)", "Value measured": 1.76}

----------
tested on: PXR homodimer (NR concentration 270 nM); assay: PBM binding z-score (relative to random genomic background probes); higher = stronger binding; sequences stand for … in GC…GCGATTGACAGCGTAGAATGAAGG
Field: class. Source value: PBM binding z-score. Ranges: label 0: < -0.09; label 1: ≥ -0.09 and < 0.6; label 2: ≥ 0.6

{"Polymer sequence": "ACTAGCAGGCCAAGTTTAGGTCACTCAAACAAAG", "Class assignment": "label 1"}
{"Polymer sequence": "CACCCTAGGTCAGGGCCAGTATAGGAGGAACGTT", "Class assignment": "label 1"}
{"Polymer sequence": "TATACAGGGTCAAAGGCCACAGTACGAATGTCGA", "Class assignment": "label 2"}
{"Polymer sequence": "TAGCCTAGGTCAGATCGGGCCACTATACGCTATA", "Class assignment": "label 0"}
{"Polymer sequence": "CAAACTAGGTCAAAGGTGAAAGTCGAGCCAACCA", "Class assignment": "label 1"}
{"Polymer sequence": "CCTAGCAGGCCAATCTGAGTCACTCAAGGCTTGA", "Class assignment": "label 0"}
{"Polymer sequence": "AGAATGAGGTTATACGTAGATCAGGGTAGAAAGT", "Class assignment": "label 2"}
{"Polymer sequence": "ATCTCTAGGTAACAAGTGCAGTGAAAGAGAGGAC", "Class assignment": "label 1"}
{"Polymer sequence": "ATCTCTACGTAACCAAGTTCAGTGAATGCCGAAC", "Class assignment": "label 2"}
{"Polymer sequence": "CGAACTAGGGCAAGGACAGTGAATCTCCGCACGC", "Class assignment": "label 0"}
{"Polymer sequence": "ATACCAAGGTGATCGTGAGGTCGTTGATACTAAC", "Class assignment": "label 2"}

----------
test system: VDR homodimer (NR concentration 270 nM); experiment: PBM binding z-score (relative to random genomic background probes); higher = stronger binding; sequences stand for … in GC…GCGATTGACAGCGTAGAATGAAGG
So basically, the class depends on measured PBM binding z-score, and the ranges are band A = under 0.5, band B = from 0.5 up to 2, band C = 2 and over

{"Polymer sequence": "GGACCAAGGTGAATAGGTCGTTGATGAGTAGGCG", "Target desc": "VDR homodimer (NR concentration 270 nM)", "Class assignment": "band A"}
{"Polymer sequence": "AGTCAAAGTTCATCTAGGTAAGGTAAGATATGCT", "Target desc": "VDR homodimer (NR concentration 270 nM)", "Class assignment": "band C"}
{"Polymer sequence": "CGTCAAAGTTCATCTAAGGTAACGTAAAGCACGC", "Target desc": "VDR homodimer (NR concentration 270 nM)", "Class assignment": "band C"}
{"Polymer sequence": "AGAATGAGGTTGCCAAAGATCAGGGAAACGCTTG", "Target desc": "VDR homodimer (NR concentration 270 nM)", "Class assignment": "band A"}
{"Polymer sequence": "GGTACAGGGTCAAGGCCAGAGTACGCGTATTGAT", "Target desc": "VDR homodimer (NR concentration 270 nM)", "Class assignment": "band C"}
{"Polymer sequence": "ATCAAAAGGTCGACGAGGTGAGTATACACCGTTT", "Target desc": "VDR homodimer (NR concentration 270 nM)", "Class assignment": "band B"}
{"Polymer sequence": "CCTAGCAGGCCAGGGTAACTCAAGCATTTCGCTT", "Target desc": "VDR homodimer (NR concentration 270 nM)", "Class assignment": "band A"}
{"Polymer sequence": "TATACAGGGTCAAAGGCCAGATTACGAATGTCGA", "Target desc": "VDR homodimer (NR concentration 270 nM)", "Class assignment": "band C"}
{"Polymer sequence": "CCTACTGGCCCAAAGGTCATTGATTCCAATGCTC", "Target desc": "VDR homodimer (NR concentration 270 nM)", "Class assignment": "band C"}
{"Polymer sequence": "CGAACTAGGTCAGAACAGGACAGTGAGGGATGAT", "Target desc": "VDR homodimer (NR concentration 270 nM)", "Class assignment": "band A"}
{"Polymer sequence": "CGTCCAAGGTCAGAGACGTCAGTGAATGCCGAGT", "Target desc": "VDR homodimer (NR concentration 270 nM)", "Class assignment": "band B"}
{"Polymer sequence": "TCTTGTAGATCAAAGTTTAAGAAAGCCGAAGCCT", "Target desc": "VDR homodimer (NR concentration 270 nM)", "Class assignment": "band A"}
{"Polymer sequence": "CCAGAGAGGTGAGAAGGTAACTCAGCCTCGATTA", "Target desc": "VDR homodimer (NR concentration 270 nM)", "Class assignment": "band A"}
{"Polymer sequence": "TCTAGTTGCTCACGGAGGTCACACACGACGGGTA", "Target desc": "VDR homodimer (NR concentration 270 nM)", "Class assignment": "band C"}
{"Polymer sequence": "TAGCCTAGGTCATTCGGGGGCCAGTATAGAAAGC", "Target desc": "VDR homodimer (NR concentration 270 nM)", "Class assignment": "band C"}
{"Polymer sequence": "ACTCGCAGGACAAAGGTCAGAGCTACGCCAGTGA", "Target desc": "VDR homodimer (NR concentration 270 nM)", "Class assignment": "band A"}
{"Polymer sequence": "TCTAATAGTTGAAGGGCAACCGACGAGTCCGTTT", "Target desc": "VDR homodimer (NR concentration 270 nM)", "Class assignment": "band B"}
{"Polymer sequence": "TTACCAAGGTGTAAGGTCGTTGATGCACGCCTTG", "Target desc": "VDR homodimer (NR concentration 270 nM)", "Class assignment": "band B"}
{"Polymer sequence": "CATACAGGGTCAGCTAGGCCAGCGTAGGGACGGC", "Target desc": "VDR homodimer (NR concentration 270 nM)", "Class assignment": "band B"}
{"Polymer sequence": "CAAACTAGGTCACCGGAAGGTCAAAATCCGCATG", "Target desc": "VDR homodimer (NR concentration 270 nM)", "Class assignment": "band C"}
{"Polymer sequence": "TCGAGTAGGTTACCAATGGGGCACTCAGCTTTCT", "Target desc": "VDR homodimer (NR concentration 270 nM)", "Class assignment": "band A"}
{"Polymer sequence": "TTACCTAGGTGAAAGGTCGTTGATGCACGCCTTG", "Target desc": "VDR homodimer (NR concentration 270 nM)", "Class assignment": "band B"}
{"Polymer sequence": "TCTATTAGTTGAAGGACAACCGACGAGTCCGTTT", "Target desc": "VDR homodimer (NR concentration 270 nM)", "Class assignment": "band B"}
{"Polymer sequence": "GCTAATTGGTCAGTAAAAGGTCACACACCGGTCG", "Target desc": "VDR homodimer (NR concentration 270 nM)", "Class assignment": "band C"}
{"Polymer sequence": "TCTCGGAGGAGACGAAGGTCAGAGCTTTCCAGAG", "Target desc": "VDR homodimer (NR concentration 270 nM)", "Class assignment": "band A"}
{"Polymer sequence": "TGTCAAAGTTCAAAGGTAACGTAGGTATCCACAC", "Target desc": "VDR homodimer (NR concentration 270 nM)", "Class assignment": "band C"}
